This collection of values is drawn from ChEMBL document CHEMBL4513216.

Measurement notes: Toxicity liver stage against HepG2, at 10uM
Format: cell-based
Set-up: test concentration 10 uM, cell line HepG2-A16-CD81EGFP
Particulars: human, HepG2-A16-CD81EGFP cells; read-out: INHIBITION

[
  {
    "Compound": "O=C(NCCNc1ncccn1)NCCc1c(F)cccc1F",
    "cytotoxicity at 10 µM / %": 7.49
  },
  {
    "Compound": "CSCCC(NC(=O)c1ccc2ccccc2n1)C(=O)NC1CC1 (centres undefined)",
    "cytotoxicity at 10 µM / %": -7.03
  },
  {
    "Compound": "Nc1cc(C(=O)N2CCC(Oc3cccc(C(F)(F)F)c3)CC2)ccn1",
    "cytotoxicity at 10 µM / %": -7.03
  },
  {
    "Compound": "O=C(c1ccc(=O)[nH]n1)N1CCCC1CCc1ccccc1 (centres undefined)",
    "cytotoxicity at 10 µM / %": 8.89
  }
]
